target: Corticotropin-releasing factor receptor 2/Corticotropin-releasing factor-binding protein (Homo sapiens, UniProt P24387+Q13324); test: activators of CRF receptor 2 with binding protein – uHTS hits, confirmation (AID 602473); type: functional; details: read-out: EC50_Mean
Sequence (Q13324 whole entry): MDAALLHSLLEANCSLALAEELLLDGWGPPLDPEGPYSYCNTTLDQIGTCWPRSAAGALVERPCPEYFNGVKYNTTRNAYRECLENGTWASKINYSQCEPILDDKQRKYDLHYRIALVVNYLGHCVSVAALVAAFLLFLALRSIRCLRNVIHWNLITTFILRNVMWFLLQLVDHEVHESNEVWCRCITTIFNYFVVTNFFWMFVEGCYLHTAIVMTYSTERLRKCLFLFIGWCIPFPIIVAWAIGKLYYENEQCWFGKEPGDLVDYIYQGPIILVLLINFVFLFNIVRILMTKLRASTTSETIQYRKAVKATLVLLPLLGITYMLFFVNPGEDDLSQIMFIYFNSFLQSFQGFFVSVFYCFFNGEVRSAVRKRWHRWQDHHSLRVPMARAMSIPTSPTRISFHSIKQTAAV
Sequence (P24387 whole entry): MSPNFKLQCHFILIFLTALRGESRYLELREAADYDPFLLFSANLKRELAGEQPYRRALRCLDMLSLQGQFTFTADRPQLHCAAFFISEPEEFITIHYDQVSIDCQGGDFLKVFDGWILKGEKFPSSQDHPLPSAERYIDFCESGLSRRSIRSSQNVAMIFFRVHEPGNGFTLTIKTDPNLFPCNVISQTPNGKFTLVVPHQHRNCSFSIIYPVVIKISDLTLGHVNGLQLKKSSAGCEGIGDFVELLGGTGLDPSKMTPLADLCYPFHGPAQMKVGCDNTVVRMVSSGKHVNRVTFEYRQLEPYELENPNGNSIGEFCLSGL
Active and inactive are the calls of the source. Cut-off read from the data, not from the text of the source: actives have a measured EC50 and inactives only a lower limit.
Outcomes you can answer with include only these: 1 (active), -1 (inactive)

Task item: Please share the test call associated with NC(S)=NNC(=O)C12CC3CC(CC(C3)C1)C2 .
Reply: 1

Task item: Which outcome was entered for the compound Cc1ccc(S(=O)(=O)N(CC(=O)Nc2ccccc2C(=O)O)c2cccc(Cl)c2C)cc1 in this test?
Reply: 1

Task item: Outcome logged for COc1cccc(CC2(CO)CCCN(Cc3cc4ccccc4[nH]3)C2)c1 (stereo not drawn) in this assay:
Reply: 1

Task item: Could you please tell me the result logged for Cc1cc(C)cc(C(=O)Nc2cccnc2Cl)c1 in this assay?
Reply: -1

Task item: Entry COc1ccc(NC(=N)Nc2nc(C)cc(C)n2)cc1 : call = ?
Reply: 1

Task item: Hi, do you know how O=P(/C(=N/O)N1CCOCC1)(N1CCOCC1)N1CCOCC1 came out in this test?
Reply: -1

Task item: Can you look up the reported call for Cc1cc(C)cc(-n2c(C)cc(/C=C3\C(=N)N4N=C(CC(C)C)SC4=NC3=O)c2C)c1 for me?
Reply: 1

Task item: Each compound tested received a call. Report the one for CN(C)c1ccc(/C=C2\Oc3ccc(C#Cc4cccc(N)c4)cc3C2=O)cc1 .
Reply: 1

Task item: Kindly provide the recorded test outcome for the following compound: O=c1cc(-c2ccc(F)cc2)oc2ccccc12
Reply: -1

Task item: What was the test verdict on CCc1ccc(NC(=O)C(C)OC(=O)/C=C/c2ccc(O)c(OC)c2)cc1 (stereo not drawn) ?
Reply: 1

Task item: Answer briefly: the call reported for O=C(Nc1ccc(N2CCN(c3ccccc3)CC2)c(F)c1)C1CC1 in this assay.
Reply: -1

Task item: Answer briefly: the call reported for COCc1ccc(CN2CCC(C(=O)Nc3cccc(-c4cscn4)c3)CC2)o1 in this assay.
Reply: -1

Task item: Record request — test call for COc1ccc(C)cc1NC(=O)N1CCCc2ccccc21
Reply: -1

Task item: Check the results log: what was the call for Cc1ccc(CNC(=O)c2cccc3c2C(=O)c2ccc(N4CCCCC4)cc2S3(=O)=O)cc1 ?
Reply: 1

Task item: What did this assay record as the result for Cc1cc(C)c(NC(=O)c2ccc(CNS(=O)(=O)c3cc(C(F)(F)F)ccc3Cl)cc2)c(C)c1 ?
Reply: -1

Task item: Given O=[N+]([O-])c1cc(/C=N\O)ccc1Oc1ccc(F)cc1 , state the outcome it received in this test.
Reply: -1

Task item: Answer briefly: the call reported for O=C/C(=C\Nc1ccccn1)c1nc2cc(Cl)ccc2o1 in this assay.
Reply: -1

Task item: Status in this test for Cc1nn(Cc2ccc(Cl)cc2)c(C)c1NC(=O)c1ccc([N+](=O)[O-])cc1 ?
Reply: -1

Task item: GET /call?item= CC(C)CC(=O)NC(=S)NNC(=O)c1cccc([N+](=O)[O-])c1 returns the recorded outcome of this test.
Reply: -1

Task item: # outcome recorded in this test, key = COC(=O)C1=NN(c2ccccc2)C2(S1)SC(C(C)=O)=C(C)N2c1ccccc1 (stereo not drawn)
Reply: -1

Task item: Assay outcome for Oc1nc2cc3c(cc2cc1C(c1nnnn1C1CCCCC1)N1CCSCC1)OCCO3 (stereo not drawn) : what was it?
Reply: -1

Task item: Could you kindly confirm the outcome this assay logged for COC(=O)N/N=C(\C)c1cccs1 ?
Reply: -1

Task item: Please state the recorded outcome for this compound: CCC(C)[C@H](NC(=O)N1CCn2c1nc1ccccc12)C(=O)NCc1ccc(OC)cc1 (stereo partly drawn)
Reply: -1
